Values compiled from the supplement of paper PMC6089552.

Tested on: A673/TR/shEF
assay info: cell viability (LOESS-normalised, relative to median of negative controls) (log2 ratio); higher = more viable cells (less compound effect), active = hit call of the paper (over 3 MAD below the median)
assay conditions: 0.025 µM; library screen: screen2; EWS-FLI1 expression: high (no doxycycline); treatment time: 72 h
Screen size: about 3,200 compounds; about 300 (9.4%) showed activity. This excerpt belongs to a sample that is enriched for actives.
# cell viability (log2) annotations

Consider the following illustrative entries.
O=C1C=CC(=O)c2c(O)cccc21
0.123 (inactive)
COc1cc2c(c(OC)c1OC)-c1ccc(OC)c(=O)cc1[C@@H](NC(C)=O)CC2
0.127 (inactive)
C[C@@H]1CC[C@@]2(NC1)O[C@H]1C[C@H]3[C@@H]4CC=C5C[C@@H](O)CC[C@]5(C)[C@H]4CC[C@]3(C)[C@H]1[C@@H]2C
0.0804 (inactive)

Form: compound = O=C(O)CCCc1ccc(N(CCCl)CCCl)cc1 ; cell viability (log2) = 0.0942 (inactive)

cell viability (log2) recorded for this compound, CNNC , is 0.186 (inactive)

Form field cell viability (log2), entry C=C(C)[C@H]1Cc2c(ccc3c2O[C@@H]2COc4cc(OC)c(OC)cc4[C@@H]2C3=O)O1 : 0.0593 (inactive)

Notebook: O=P1(N(CCCl)CCCl)NCCCO1 (configuration not stated) , cell viability (log2) read as 0.105 (inactive)

----------
Test system: A673/TR/shEF
assay info: cell viability (LOESS-normalised, relative to median of negative controls) (log2 ratio); higher = more viable cells (less compound effect), active = hit call of the paper (over 3 MAD below the median)
assay conditions: 25 µM; library screen: screen3; EWS-FLI1 expression: low (doxycycline-induced shRNA knockdown); treatment time: 72 h
The campaign covered roughly 3,200 compounds. About 300 (9.4%) showed activity. Shown is part of a subset that was picked to be rich in actives.
A correct response names exactly one class from active, inactive

For orientation, consider the following solved cases.
CN(C)[C@@H]1C(=O)C(C(N)=O)=C(O)[C@@]2(O)C(=O)C3=C(O)c4c(O)cccc4[C@@](C)(O)[C@H]3[C@H](O)[C@@H]12
inactive
Cc1cccc(C)c1NC(=O)CN1CCCC1=O
inactive
CC[C@@]1(O)C(=O)OCc2c1cc1n(c2=O)Cc2cc3ccccc3nc2-1
active
CC(=O)O[C@H]1C[C@@H]2CC[C@@H]3[C@H](CC[C@@]4(C)[C@H]3C[C@H]([N+]3(C)CCCCC3)[C@@H]4OC(C)=O)[C@@]2(C)C[C@@H]1[N+]1(C)CCCCC1
inactive
Cn1cc(C2=C(c3cn(C4CCN(Cc5ccccn5)CC4)c4ccccc34)C(=O)NC2=O)c2ccccc21
inactive

Now look at this one.
Per the assay record, what outcome was assigned to O=C(OC1CC2CCC(C1)[N+]21CCCC1)C(O)(c1ccccc1)c1ccccc1 (centres undefined) ? inactive

----------
We begin with a simple list: items and their reported cell viability (log2).
System: A673/TR/shEF
assay info: cell viability (LOESS-normalised, relative to median of negative controls) (log2 ratio); higher = more viable cells (less compound effect), active = hit call of the paper (over 3 MAD below the median)
assay conditions: 0.25 µM; library screen: screen1; EWS-FLI1 expression: low (doxycycline-induced shRNA knockdown); treatment time: 72 h
Hit rate of the full screen: of about 3,200 compounds, about 300 (9.4%) showed activity. For the sample, actives were picked, then their nearest neighbours and some compounds at random.

C[C@]12CCC(=O)C=C1C=CC1C2CC[C@@]2(C)C1CC[C@@]2(O)CCC(=O)O (stereo not given in full)
-0.0168 (inactive)
COc1ccc(C(=O)OC2CCC3(C)C4CCC5[C@]6(O)C[C@H](O)[C@@]7(O)C(CN8CC(C)CCC8[C@@]7(C)O)[C@]6(O)C[C@@]53O[C@]24O)cc1OC (stereo not given in full)
0.0531 (inactive)
O=C(O)COc1ccc(Cl)cc1Cl
0.0542 (inactive)
NCCC(O)C(=O)NC1CC(N)C(OC2OC(CN)C(O)C(O)C2N)C(OC2OC(CO)C(O)C2O)C1O (stereo not given)
-0.0377 (inactive)

Note: attention shifts to another entry.
The compound CC(C)N1C(=O)c2ccccc2NS1(=O)=O on A673/TR/shEF: cell viability (log2) was 0.086 (inactive)

----------
System: A673/TR/shEF
assay info: cell viability (LOESS-normalised, relative to median of negative controls) (log2 ratio); higher = more viable cells (less compound effect), active = hit call of the paper (over 3 MAD below the median)
assay conditions: 0.25 µM; library screen: screen1; EWS-FLI1 expression: low (doxycycline-induced shRNA knockdown); treatment time: 72 h
Out of some 3,200 compounds screened, about 300 (9.4%) showed activity. What follows is part of a selection rich in actives, with near analogues and random picks from the rest.
property: cell viability (log2)

C[C@@H]1C(=O)O[C@H]2[C@H]1CC[C@@]1(C)C=CC(=O)[C@@]3(C)O[C@@]213
0.0137 (inactive)
O=C1C=C2C(=CCOC2O)O1 (stereo not given)
0.05 (inactive)
CC(=O)CC1CCCCN1 (stereo not given)
-0.00634 (inactive)
COP(N)(=O)SC (stereo not given)
0.0387 (inactive)
CCOP(=S)(OCC)SCn1c(=O)oc2cc(Cl)ccc21
0.153 (inactive)

The reported cell viability (log2) of the compound CSc1nc(NC(C)C)nc(NC(C)C)n1 was -0.0688 (inactive)

Form: compound = C[C@H]1C(=O)O[C@@H]2CCN3CC=C(COC(=O)[C@](C)(O)[C@]1(C)O)[C@H]23 ; cell viability (log2) = 0.0549 (inactive)

According to the records, this compound c1ccc(N=Nc2ccccc2)cc1 displays cell viability (log2) of 0.0179 (inactive)

Please fill in: cell viability (log2) reported for OCC(O)Cc1ccc2c(c1)OCO2 (stereo not given) = 0.039 (inactive)

Reported cell viability (log2) for CCC(N)C(O)c1ccc(O)c(O)c1 (stereo not given) was 0.0223 (inactive)

cell viability (log2) reading for CCC(=O)C(CC(C)N1CCOCC1)(c1ccccc1)c1ccccc1 (stereo not given) : 0.011 (inactive)

The compound COc1ccc(C[C@H]2NC[C@H](O)[C@H]2OC(C)=O)cc1 showed cell viability (log2) equal to -0.228 (active)

Sample ClC1C(Cl)C(Cl)C(Cl)C(Cl)C1Cl (stereo not given) ; cell viability (log2) observed: 0.0584 (inactive)

Data point: CN1C[C@@H](CO)C=C2c3cccc4[nH]cc(c34)C[C@@H]21 ; cell viability (log2) = 0.11 (inactive)

cell viability (log2) reported for this compound NC(=NCCCC(N)C(=O)O)N[N+](=O)[O-] (stereo not given) : 0.0355 (inactive)

----------
Test system: A673/TR/shEF
assay info: cell viability (LOESS-normalised, relative to median of negative controls) (log2 ratio); higher = more viable cells (less compound effect), active = hit call of the paper (over 3 MAD below the median)
assay conditions: 0.308 µM; library screen: screen3; EWS-FLI1 expression: low (doxycycline-induced shRNA knockdown); treatment time: 72 h
Out of some 3,200 compounds screened, about 300 (9.4%) showed activity. For the sample, actives were picked, then their nearest neighbours and some compounds at random.
property: cell viability (log2)
API note: the answer field is a bare number with no unit suffix.

Known cell viability (log2) results, listed for orientation:
CN(C)[C@@H]1C(=O)C(C(N)=O)=C(O)[C@@]2(O)C(=O)C3=C(O)c4c(O)cccc4[C@@](C)(O)[C@H]3[C@H](O)[C@@H]12
0.159
C[C@]12CC[C@H](O)CC1=CC[C@@H]1[C@@H]2CC[C@]2(C)C(=O)CC[C@@H]12
0.076
CN1[C@@H]2CC[C@H]1CC(OC(=O)C(CO)c1ccccc1)C2 (some centres not stated)
-0.00749
Cc1c(N)nc(C(CC(N)=O)NCC(N)C(N)=O)nc1C(=O)NC(C(=O)NC(C)C(O)C(C)C(=O)NC(C(=O)NCCc1nc(-c2nc(C(=O)NCCC[S+](C)C)cs2)cs1)C(C)O)C(O[C@@H]1O[C@@H](CO)[C@@H](O)[C@H](O)[C@@H]1O[C@H]1O[C@H](CO)[C@@H](O)[C@H](OC(N)=O)[C@@H]1O)c1cnc[nH]1 (some centres not stated)
0.0961
Cn1cc(C2=C(c3cn(C4CCN(Cc5ccccn5)CC4)c4ccccc34)C(=O)NC2=O)c2ccccc21
0.054

Briefly, cell viability (log2) measured for O=P1(N(CCCl)CCCl)NCCCO1 (configuration not stated) : 0.0134

Sure, the documented cell viability (log2) for C[C@]12CC[C@H]3[C@@H](CCC4=CC(=O)CC[C@@]43C)[C@@H]1CC[C@@H]2OC(=O)CCC1CCCC1 is 0.0268

----------
Test system: A673/TR/shEF
assay info: cell viability (LOESS-normalised, relative to median of negative controls) (log2 ratio); higher = more viable cells (less compound effect), active = hit call of the paper (over 3 MAD below the median)
assay conditions: 0.025 µM; library screen: screen2; EWS-FLI1 expression: low (doxycycline-induced shRNA knockdown); treatment time: 72 h
In all, about 3,200 compounds went through this assay and about 300 (9.4%) showed activity. The entries come from a sample that favours actives as a whole.
property: cell viability (log2)
Output spec: single numeric token, no unit.

Example compounds with recorded cell viability (log2):
CNNC
0.0401
O=C1C=CC(=O)c2c(O)cccc21
0.0947
C[C@@H]1CC[C@@]2(NC1)O[C@H]1C[C@H]3[C@@H]4CC=C5C[C@@H](O)CC[C@]5(C)[C@H]4CC[C@]3(C)[C@H]1[C@@H]2C
0.071
C=C(C)[C@H]1Cc2c(ccc3c2O[C@@H]2COc4cc(OC)c(OC)cc4[C@@H]2C3=O)O1
0.0961

Here is the next item to consider.
Item C[C@H]1C(=O)O[C@@H]2CCN3CC=C(COC(=O)[C@](C)(O)[C@]1(C)O)[C@H]23 was tested on A673/TR/shEF; the reported cell viability (log2) is 0.0541
